So I've got a bunch of binders here, and I need their Kd values.
# Test system: T1, RSV postfusion F (postF), subtype A (respiratory syncytial virus subtype A, UniProt P03420 26-513)
# T1 construct: also called Postfusion subtype A; F deltaFP
# Experiment: BLI, IgG
Give bare numbers, in nM.

Binder | Quantity measured | Obs value
ADI-19485 (antibody, V domains shown, full-length IgG) VH: QVQLQESGPGLVKPSQTLSLSCTVSGGSISSTNYYWTWIRQHPGKGLEWIGFIYNRGSTYYNPSLTSRVTISVDTSKNQFSLKLTSVTAADTAVYYCARAPYYYDRNGYYTAFDIWGQGTTVTVSS VL: EIVLTQSPATLSVSPGERATLSCRASQSVSSNLAWYQQKPGQAPRLLIYDASTRATDIPARFSGGGSGTEFTLTISSLQSEDFAVYYCQQYNNWPRTFGLGTKVDIK | Kd | 0.251

Okay, next one:
For the binder ADI-14338 (antibody, V domains shown, full-length IgG; also called Ab 6) VH: EVQLVESGGGVVQPGRPLRLSCAASGFTFSTYDLYWVRQAPGKGLDWVAIISPDGNKKYYADSVKGRFTISRDNSKNTLFLHMNSLRAEDTAVYYCARDYGNYFGSGSYYRYFDLWGRGTLVTVSS VL: DIQLTQSPSSLSASVGDRVTITCRASQSISSHLNWYQQKPGKAPKLLIYASSSLQSGVPSRFSGSGSGTDFTLTISGLQPEDFATYYCQQSYSTPFTFGPGTKVEIK , what Kd is on record?
5.98
